The measured values listed here are drawn from ChEMBL document CHEMBL1201862.

tested on: LXFL 529; test: NCI tumour cell line growth inhibition, 48 h
Calls of active or inactive are those of the source. Rule as the data show it: active = GI50 up to about 1.1 µM and inactive = higher. Where a SMILES comes first, the peptide text is derived from it. [ ]: non-standard residue; d: D form. The star is where a group is joined. ξ: configuration not given here. X4 = COc1ccc(C(N*)c2ccc(OC)cc2)cc1; NMeF = CN[C@@H](Cc1ccccc1)C(=O)O; NMeD = CN[C@@H](CC(=O)O)C(=O)O; NMeV = CN[C@H](C(=O)O)C(C)C; ξNMeV = CNC(C(=O)O)C(C)C; Boc = CC(C)(C)OC(=O)*; ξNMeA = CNC(C)C(=O)O; ξV = CC(C)C(N)C(=O)O
Can you tell me GI50 for the items I'm about to list?

Previously resolved entries follow.
compound	GI50
COC(=O)[C@]1(C)CCC[C@]2(C)C3CC4OOC3(C=C4C(C)C)CCC21 (stereo not given in full)	13.7 µM (inactive)
O=c1c2cc([N+](=O)[O-])ccc2sc2ccsc12	69.3 µM (inactive)
Cc1cccc(C)c1NC(=O)CCc1nnc(S)[nH]1	> 100 µM (inactive)
Cc1cc(O)c(C(=O)CC2(O)C(=O)Nc3c(Cl)cc(Cl)cc32)c(=O)o1 (stereo not given)	> 100 µM (inactive)

Now let's try a different one.
Fill blank: measured GI50 of the compound COc1ccc(C(NC(=O)C[C@@H](C(=O)N(C)C(C)C(=O)O)N(C)C(=O)[C@@H]2CCCN2C(=O)[C@H](C(C)C)N(C)C(=O)C(C(C)C)N(C)C(=O)[C@H](Cc2ccccc2)N(C)C(=O)C(NC(=O)OC(C)(C)C)C(C)C)c2ccc(OC)cc2)cc1 (stereo not given in full) (Boc-[ξV][NMeF][ξNMeV][NMeV]P[NMeD](X4)[ξNMeA]-OH) is ____. 14.7 µM (inactive)

###

tested on: UACC-62; assay: NCI tumour cell line growth inhibition, 48 h
Activity calls are given as the source filed them. No stated cut-off is given here; in the data, active = GI50 up to about 1.1 µM and inactive = higher.
quantity_measured: GI50

Previously resolved entries follow.
>>> print(df.to_string())
                                   molecule             measured
0  CS/C1=C(\c2ccc(C)cc2)N(c2ccccc2)C(=O)C(=O)N(c2ccccc2)/C(c2ccc(C)cc2)=C(/SC)SS1  > 100 µM (inactive)
1                 Nc1ccc(-c2nc3ccccc3s2)cc1   18.4 µM (inactive)
2  C=CCN1C(=O)/C(=C/c2ccco2)N=C1SC1OC(COC(C)=O)C(OC(C)=O)C(OC(C)=O)C1OC(C)=O (stereo not given)   83.9 µM (inactive)
3  CC[C@@H]1CC[C@@H]2[C@H](CC[C@]3(C)[C@@H](OC(C)=O)CC[C@@H]23)[C@H]1COC(C)=O   18.1 µM (inactive)
4  CC(C)(O)[C@@H]1CC[C@@]2(C)CCC[C@H](O)[C@H]2C1  > 100 µM (inactive)

Provide each entry's GI50 from the list below.
1. COc1ccc(N2C(=O)C3c4[nH]c5ccccc5c4C4CCCCCCC4C3C2=O)cc1 (stereo not given)
2. O=C(Cn1c(=O)oc2ccc(C(=O)c3ccc(F)cc3)cc21)c1ccc([N+](=O)[O-])cc1
3. Nc1ccc(N)c2c1C(=O)c1ccccc1C2=O
4. CCCCSC1=N/C(=C\c2ccc(N(C)C)cc2)C(=O)N1
5. CCOC(=O)C1=C(C(C)=O)CSC(c2ccccc2)=N1

15.9 µM (inactive)
34.2 µM (inactive)
15.7 µM (inactive)
20.7 µM (inactive)
> 100 µM (inactive)

###

Can you tell me GI50 for the items I'm about to list?
test system: LXFL 529; experiment: NCI tumour cell line growth inhibition, 48 h
The source made the active and inactive calls. Rule as the data show it: active = GI50 up to about 1.1 µM and inactive = higher.

>>> print(df.to_string())
                                   molecule             measured
0  C/C(=C1/N=C(c2cc([N+](=O)[O-])ccc2Cl)N(c2cccc(C)c2)C1=O)c1cc2ccccc2oc1=O   84.9 µM (inactive)
1  CC(=O)OCC1OC(N2C(=O)C(=O)c3cc(C)ccc32)C(OC(C)=O)C(OC(C)=O)C1OC(C)=O (centres undefined)  > 100 µM (inactive)
2  Cc1ccc(C)c(NC(=O)C(=O)CC(=O)C2CCOC2=O)c1 (centres undefined)  > 100 µM (inactive)
3  CCOC(=O)NC(=O)c1cn(CCN2CCN(c3ncnc4[nH]cnc34)CC2)c(=O)[nH]c1=O  > 100 µM (inactive)
4    CCOC(=O)/C(=C\c1ccc[nH]1)C(=O)c1ccccc1  > 100 µM (inactive)

Provide each entry's GI50 from the list below.
1. Cc1ccc(C(=O)OCC(C)C)cc1/N=N/N(C)C
2. CC(=O)Nc1ccc(/C=C(\NC(=O)c2ccccc2)C(=O)NNS(=O)(=O)c2ccc(C)cc2)cc1
3. O=C1c2c(n(Cc3ccccc3)c(=O)n2Cc2ccccc2)C(=O)N1Cc1ccccc1
4. NS(=O)(=O)c1ccc(NC(=O)C2C(=O)C(=O)N(c3ccc(S(N)(=O)=O)cc3)C2=O)cc1 (centres undefined)

1: > 100 µM (inactive); 2: > 100 µM (inactive); 3: 35 µM (inactive); 4: > 100 µM (inactive)

###

system: SF-268; experiment: NCI tumour cell line growth inhibition, 48 h
Calls of active or inactive are those of the source. Rule as the data show it: active = GI50 up to about 1.1 µM and inactive = higher.
# output must be one of 1 (active), -1 (inactive)

The following molecules have reported results that may help.
molecule	assigned_label
NS(=O)(=O)c1nnc(NC(=S)NC(=O)Nc2ccc(Cl)c(Cl)c2)s1	-1
COc1ccc(N2C(=O)C3c4[nH]c5ccccc5c4C4CCCCCCC4C3C2=O)cc1 (stereo not given)	-1
CCOC(=O)C12CCC(=O)C=C1[C@@H](C)C(=O)CC2 (stereo not given in full)	-1

Hello, I am checking results. What call was entered for O=S(=O)(O)c1cc(O)c2c(O)c(/N=N/c3ccc(/C=C/c4ccc(/N=N/c5c(S(=O)(=O)O)cc6cc(S(=O)(=O)O)cc(O)c6c5O)cc4S(=O)(=O)O)c(S(=O)(=O)O)c3)c(S(=O)(=O)O)cc2c1 ? -1

Hello, I am checking results. What call was entered for Cc1ccc2c(C(=O)c3c(C)n(CCN4CCOCC4)c4ccccc34)cccc2c1 ? -1

Hello, I am checking results. What call was entered for O=C(/C=C/c1ccccc1O)/C=C/c1ccccc1O ? 1

Hello, I am checking results. What call was entered for O=C1C2C3CCC(C2C(=O)N1CO)C1C2C(=O)N(CO)C(=O)C2C31 (stereo not given) ? -1

Hello, I am checking results. What call was entered for CC(=O)c1ccc(NC(=O)/C(=N\NC(N)=O)C(C#N)CC(C)(C)C=O)cc1 (stereo not given) ? -1

Hello, I am checking results. What call was entered for Clc1ncnc2c1ncn2CCCCCCCCCCCCn1cnc2c(Cl)ncnc21 ? -1

Hello, I am checking results. What call was entered for O=C1c2cc3c(cc2CC12Cc1ccc4c(c1C2=O)CCC4)CCC3 (stereo not given) ? -1

Hello, I am checking results. What call was entered for CCOP(=O)(C=C=C(C)C)OCC ? -1

Hello, I am checking results. What call was entered for O=C(CCCCCCCCCCc1ccccc1)c1c(O)cccc1O ? -1

Hello, I am checking results. What call was entered for COc1ccccc1NC(=O)C1=C(C)NC(C)=C(C(=O)Nc2ccccc2OC)C1c1cccc2ccccc12 ? -1

Hello, I am checking results. What call was entered for CN1CCCOC(c2ccc([N+](=O)[O-])cc2)O1 (stereo not given) ? -1

Hello, I am checking results. What call was entered for NS(=O)(=O)c1ccc(NC(=O)C2C(=O)C(=O)N(c3ccc(S(N)(=O)=O)cc3)C2=O)cc1 (stereo not given) ? -1

###

tested on: LOX IMVI; test: NCI tumour cell line growth inhibition, 48 h
Activity calls are given as the source filed them. Rule as the data show it: active = GI50 up to about 1.1 µM and inactive = higher.
Can you tell me GI50 for the items I'm about to list?

Previously resolved entries follow.
molecule	measured
COC(=O)[C@]1(C)CCC[C@]2(C)C3CC4OOC3(C=C4C(C)C)CCC21 (stereo not given in full)	2.77 µM (inactive)
COC(=O)c1c[nH]cc1CCCCc1c[nH]cc1C(=O)OC	> 100 µM (inactive)
O=c1c2cc([N+](=O)[O-])ccc2sc2ccsc12	> 100 µM (inactive)
COC1OC(C(C)O)C2OC(C)(C)OC12 (stereo not given)	> 100 µM (inactive)

Provide each entry's GI50 from the list below.
1. CCOC(=O)C(Cl)(NC(=O)OCc1ccccc1)C(F)(F)F (stereo not given)
2. COc1cc2c(c(OC)c1)/C(=C/Sc1ccccc1)C(=O)N(C(C)(C)C)C2
3. Cc1nc(-c2nc(C)c(C(=O)/C=C/c3ccc([N+](=O)[O-])cc3)s2)sc1C(=O)/C=C/c1ccc([N+](=O)[O-])cc1
4. CC(CC[C@@]1(C)C(=O)CCC2O[C@]21C)[C@H]1C[C@@H](c2ccoc2)OC1=O (stereo not given in full)
5. CC(C)(C)CC(C)(C)c1cc(O)c(O)c(CN2CCCCC2)c1
6. COc1cc(CC(C)N)ccc1O (stereo not given)
7. Sc1nnc(C(c2ccccc2)c2ccccc2)[nH]1
8. O=C(ON=c1c2ccccc2ccc2ccccc12)c1cc([N+](=O)[O-])cc([N+](=O)[O-])c1

1: > 100 µM (inactive); 2: 18.8 µM (inactive); 3: > 100 µM (inactive); 4: 19.8 µM (inactive); 5: 12 µM (inactive); 6: > 100 µM (inactive); 7: > 100 µM (inactive); 8: 90.2 µM (inactive)
